Measured IC50, listed per entry.
system: MYB mRNA; experiment: RT-qPCR splicing assay, MYB canonical junction (CJ) and alternative junction (AJ) mRNA; type: cell-based, human; conditions: Homo sapiens; decrease in MYB canonical junction (CJ) mRNA, RT-qPCR; read-out: MYB CJ IC50

compound=CN1CCC(N(C)c2ccc3ncn(-c4cc(F)c5nn(C)cc5c4)c(=O)c3c2)CC1 measured_parameter=IC50 result="> 10000 nM"
compound="Cc1cn2nc(-c3cc(F)c4c(=O)n([C@@H]5CCNC6(CC6)C5)ccc4c3)cc(C)c2n1 (single isomer, unassigned)" measured_parameter=IC50 result="< 100 nM"
compound=Cc1cn2nc(-c3ccc4nc(N5CCNC6(CC6)C5)[nH]c(=O)c4c3)cc(C)c2n1 measured_parameter=IC50 result="100 to 1000 nM"

[ask] Name the recorded IC50 for "Cc1c(O)c(-c2ccc3c(=O)n([C@@H]4C[C@@H](C)N[C@@H](C)C4)ccc3n2)cc2cn(C)nc12" .
[reply] 100 to 1000 nM

---

Listed here are compounds together with their documented IC50.
system: HTT mRNA; test: RT-qPCR splicing assay, HTT canonical junction (CJ) and alternative junction (AJ) mRNA; type: cell-based, human; details: Homo sapiens, decrease in HTT canonical junction (CJ) mRNA, RT-qPCR; read-out: HTT CJ IC50

Recorded results for 8 compounds are shown here.
compound="Cc1cn2cc(-c3cc(F)c4c(=O)n([C@H]5CNC[C@@H]5F)ccc4c3)cc(F)c2n1 [Compound 644]" result="> 10 µM"
compound="Cc1cc(-c2ccc3c(=O)[nH]c(N4CCN(C)CC4)nc3c2)cc2cn(C)nc12 [Compound 2212]" result="1 to 10 µM"
compound="Cc1cn2nc(-c3ccc4c(=O)n(C5CCNCC5)ccc4c3)cc(Cc3nnc[nH]3)c2n1 [Compound 535]" result="1 to 10 µM"
compound="Cc1c(O)c(-c2ncc3c(=O)n([C@H]4CCNC(C)(C)C4)ccc3n2)cc2cn(C)nc12 [Compound 1436]" result="1 to 10 µM"
compound="CN(c1ccc2c(=O)n(-c3ccc4nn(C)cc4c3)cnc2c1)C1CCNCC1 [Compound 180]" result="> 10 µM"
compound="Cc1cn2nc(-c3ccc4c(=O)n([C@H]5CCNC6(CC6)C5)ccc4n3)cc(C)c2n1 [Compound 1506]" result="< 0.1 µM"
compound="Cc1cn2c(n1)CCC(c1ccc3c(=O)n(C4CCNCC4)ccc3c1)C2 (stereo not drawn) [Compound 453]" result="> 10 µM"
compound="Cn1cc2cc(-c3ncc4c(=O)n(C5CCNC5)ccc4n3)c(O)c(F)c2n1 (stereo not drawn) [Compound 1223]" result="1 to 10 µM"

[ask] Data request, read-out IC50, for Cc1c(O)c(-c2ncc3c(=O)n(C4CCNC(C)(C)C4)ccc3n2)cc2cn(C)nc12 (stereo not drawn) [Compound 1442]
[reply] 1 to 10 µM

---

Listed here are compounds together with their documented AC50.
tested on: MYB mRNA; experiment: RT-qPCR splicing assay, MYB canonical junction (CJ) and alternative junction (AJ) mRNA; format: cell-based, human; conditions: Homo sapiens; increase in MYB alternative junction (AJ) mRNA, RT-qPCR; read-out: MYB AJ AC50

compound=CN1CCN(c2ccc3ncn(-c4cc(F)c5nn(C)cc5c4)c(=O)c3c2)CC1 result="1000 to 10000 nM"
compound=Cc1cn2nc(-c3cc(F)c4c(=O)n([C@H]5CCNC6(CC6)C5)ncc4c3)cc(C)c2n1 result="< 100 nM"
compound="Cc1cn2cc(-c3cc(F)c4c(=O)n(C5CCNC5)ccc4c3)cc(C#N)c2n1 (stereo not shown)" result="100 to 1000 nM"

Please examine the following record next.
[ask] # input compound: Cc1cn2nc(-c3cc(F)c4c(=O)n([C@@H]5CCNC6(CC6)C5)ccc4c3)cc(C)c2n1 (single isomer, unassigned) ; wanted: its AC50
[reply] < 100 nM

The reported measurements were obtained from patent US20250332173A1.
